# credit: patent US5654318A

Data export: MIC values recorded with Str. faecalis, ATCC 19433.
readout name: MIC (µg/mL)

• O=C(O)c1cn([C@@H]2C[C@@H]2F)c2c(F)c(N3C[C@@H]4CCCN[C@@H]4C3)c(F)cc2c1=O = 0.2
• Nc1c(F)c(N2C[C@@H]3CCCN[C@@H]3C2)c(F)c2c1c(=O)c(C(=O)O)cn2[C@@H]1C[C@@H]1F = 0.1
• Cc1c(N2C[C@@H]3CCCN[C@@H]3C2)c(F)cc2c(=O)c(C(=O)O)cn([C@@H]3C[C@@H]3F)c12 = 0.2
• O=C(O)c1cn([C@@H]2C[C@@H]2F)c2c(Cl)c(N3CC4=C(CNC4)C3)c(F)cc2c1=O = 0.39
• O=C(O)c1cn([C@@H]2C[C@@H]2F)c2c(Cl)c(N3C[C@@H]4CCCN[C@@H]4C3)c(F)cc2c1=O = 0.1
• Nc1c(F)c(N2C[C@H]3NCCO[C@@H]3C2)c(F)c2c1c(=O)c(C(=O)O)cn2[C@@H]1C[C@@H]1F (mixture of isomers) = 0.1

###

Overview of recorded Partition Coefficient p' for various molecules
Conditions: pH 7.4
readout name: Partition Coefficient p'

- O=C(O)c1cn([C@@H]2C[C@@H]2F)c2c(Cl)c(N3C[C@H]4NCCO[C@@H]4C3)c(F)cc2c1=O (mixture of isomers) [Ex. 7]: 26.9
- Cc1c(N2C[C@@H]3CCCN[C@@H]3C2)c(F)cc2c(=O)c(C(=O)O)cn([C@@H]3C[C@@H]3F)c12 [Ex. 4]: 3.73
- O=C(O)c1cn(C2CC2)c2c(Cl)c(N3C[C@@H]4CCCN[C@@H]4C3)c(F)cc2c1=O [Bay y 3118, reference compound]: 35.8
- O=C(O)c1cn([C@@H]2C[C@@H]2F)c2c(Cl)c(N3C[C@@H]4CCCN[C@@H]4C3)c(F)cc2c1=O [Ex. 2]: 6.69
- O=C(O)c1cn([C@@H]2C[C@@H]2F)c2c(Cl)c(N3C[C@H]4NCCO[C@@H]4C3)c(F)cc2c1=O (mixture of isomers) [Ex. 8]: 24.8
- O=C(O)c1cn([C@@H]2C[C@@H]2F)c2c(F)c(N3C[C@@H]4CCCN[C@@H]4C3)c(F)cc2c1=O [Ex. 5]: 5.84
- O=C(O)c1cn(C2CC2)c2c(Cl)c(N3C[C@H]4NCCO[C@@H]4C3)c(F)cc2c1=O (relative stereo) [Compound A, reference compound]: 112
